src = PubChem BioAssay

Test: anti-His antibody binders, primary screen, artefact control for SMM control protein annotation, biochemical, small-molecule microarray, 635 nm fluorescence (AID 1128);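 further: score merges feature fluorescence with signal-to-noise for each printed compound spot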
Settings: anti-His Alexa647 antibody binding, higher = more signal
Observed Property: composite z-score
Reply: number alone, nothing else.

[[record]]
smiles = "O=C1N(Cc2ccccc2)c2ccccc2C[C@@]12N=C(c1ccc(OCCCO)cc1)O[C@H]2c1ccccc1"
experimental_value = 1.81

[[record]]
smiles = "CC(C)(C)OC(=O)CC[C@]1(C(N)=O)N=C(c2ccc(OCCCO)cc2)O[C@H]1c1ccccc1N=[N+]=[N-]"
experimental_value = 2.8

[[record]]
smiles = "COC(=O)C(CC#Cc1ccc2c(c1)[C@]1(C(=O)N2)[C@H](c2ccccc2OCCO)N2[C@H](c3ccccc3)[C@H](c3ccccc3)OC(=O)[C@H]2[C@@H]1C(=O)N1CCN(c2ncccn2)CC1)C(=O)OC"
experimental_value = 1.48


Shifting focus to the molecule that follows.
Look up composite z-score for this molecule: Cc1cccc([C@H]2C[C@H]3C(Br)=C[C@@]2(CO)C(=O)[C@]32CO2)c1
0.338

* * *

Assay: small-molecule binders of probe aLefty1, primary screen, biochemical, small-molecule microarray, 635/667 nm fluorescence (AID 1153);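 further: score merges spot fluorescence with signal-to-noise ratio from the scanned slide images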
Settings: higher = more signal
Observed Property: composite z-score
Reply: number alone, nothing else.

Consider the following illustrative entries.
[[record]]
compound = "CC(CO)N1C(=O)[C@@H]2[C@H]3C(=O)OCC=C[C@H]3OC23C=CCN(c2ccc4ccccc4c2)C(=O)[C@@H]13 (some centres undefined)"
experimental_value = 0.0927

[[record]]
compound = "COc1ccc([Si](C)(C)[C@H]2[C@H](CC(=O)N(CCO)Cc3ccccc3)O[C@@]3(C(=O)N(c4ccccc4)c4ccccc43)[C@@H]2C)cc1"
experimental_value = -0.0603

[[record]]
compound = "COC(=O)C(CC#Cc1ccc2c(c1)[C@]1(C(=O)N2)[C@H](C(N)=O)[C@H]2C(=O)O[C@H](c3ccccc3)[C@H](c3ccccc3)N2[C@@H]1c1ccccc1OCCO)C(=O)OC"
experimental_value = 0.0622


Shifting focus to the compound that follows.
Look up composite z-score for this compound: COc1cc(CO)cc(I)c1O[C@H]1C=C(C(=O)NCCO)C[C@@H](N(CCN2CCOCC2)C(=O)C2CCCO2)[C@@H]1O (some centres undefined)
-0.245

* * *

Assay: PSAC antagonists in infected red cells, primary screen, cell-based, P. falciparum Indochina, OD700, 2 h (AID 1155);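 further: lysis reports solute entry through the parasite surface anion channel PSAC; channel blockers reduce lysis of infected cells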
Conditions: P. falciparum Indochina infected erythrocytes, osmotic lysis OD700; higher = more signal, called active from +8 up or from −8 down
# label = y if z-score >= 0.2 else n

[[record]]
compound = "COc1ccc([Si](C)(C)[C@H]2[C@H](CC(=O)N3CCC[C@H]3CO)O[C@@]3(C(=O)N(C)c4ccccc43)[C@@H]2C)cc1"
group_label = "y"

[[record]]
compound = "CCOC(=O)C1=CCC(c2ccncc2)N(S(=O)(=O)c2ccc(C)cc2)C1 (stereo unspecified)"
group_label = "y"

[[record]]
compound = "C=CCC(OC(C)=O)[C@@H]1[C@@H](N(Cc2ccc(-c3ccccc3)cc2)C(=O)Cc2ccc(OC)cc2)c2cc(OCCCO)ccc2N1C(=O)c1ccc2ccccc2c1 (stereo partly specified)"
group_label = "y"


Tell me whether z-score is at least 0.2 here: COc1cc2c(cc1O)C(C)N(Cc1sc3ccccc3c1Cl)CC2 (stereo unspecified)
y

Then what about the compound COCCOC(=O)N1C(=O)[C@@]2(c3cc(C#CCNC(N)=O)ccc31)[C@H](C(N)=O)[C@H]1C(=O)O[C@H](c3ccccc3)[C@H](c3ccccc3)N1[C@@H]2c1ccc(O)cc1 ?
n

Then what about the compound COC(=O)[C@@]1(Cc2ccc(F)cc2)[C@H]2c3cc(C(=O)N4CCCC4)n(CCSCCO)c3C[C@H]2CN1C(=O)c1ccccc1 ?
y

Then what about the compound COC(=O)[C@@]1(Cc2ccc(F)cc2)[C@H]2c3cc(C(=O)N(C)C)n(CCF)c3C[C@H]2CN1C(=O)c1ccccc1 ?
n

Then what about the compound COC(=O)C(CC#Cc1ccc2c(c1)[C@]1(C(=O)N2)[C@H](C(=O)NC[C@H](O)c2ccccc2)[C@H]2C(=O)O[C@H](c3ccccc3)[C@H](c3ccccc3)N2[C@@H]1c1ccc(O)cc1)C(=O)OC ?
y

Then what about the compound COc1cccc(C)c1NC(=O)O[C@H]1[C@H](OC(=O)Nc2ccccc2-c2ccccc2)[C@@H](OC(=O)Nc2ccccc2-c2ccccc2)[C@@H](OC)O[C@@H]1CO ?
y

Then what about the compound COc1ccc(C(O)C2C=CC3C(=O)N(c4ccccc4)C(=O)C3N2Nc2ccccc2F)c2ccccc12 (stereo unspecified) ?
y

Then what about the compound COC(=O)[C@H](Cc1ccccc1)N1CC(C)(OC)O[C@@H](Cc2ccccc2)[C@H]1/C=C/C1CC1 (stereo partly specified) ?
n
